B1: CPXM2 (parent)
chain: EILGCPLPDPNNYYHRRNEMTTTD

- Variants of: B1
- experiment: protein stability index of a GFP-peptide fusion (GPS, HEK-293T) (PSI 1-6); higher = more stable;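 also: lentivirally expressed fusions sorted by FACS into six bins by GFP to DsRed ratio, PSI derived from sequencing read proportions per bin multiplied by bin number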
- measurement-conditions: c terminus: a fixed tail appended
metric-name: protein stability index

// below: answered variants
{"columns": ["residue-sequence", "protein stability index"],
 "data": [
  ["EILGCPDPDPNNYYHRRNEMTTTD", 4.04],
  ["EILGCPLPDPNNYYHRRNEMDTTD", 4.25]
]}

Batch lookup, protein stability index per entry.
1. EILGCPLPDPNNYYRRRNEMTTTD
2. EILCCPLPDPNNYYHRRNEMTTTD

3.31
3.47
